Molecular target: Receptor tyrosine-protein kinase erbB-2 (Homo sapiens) (UniProt P04626)
Sequence (P04626 whole entry, looked up): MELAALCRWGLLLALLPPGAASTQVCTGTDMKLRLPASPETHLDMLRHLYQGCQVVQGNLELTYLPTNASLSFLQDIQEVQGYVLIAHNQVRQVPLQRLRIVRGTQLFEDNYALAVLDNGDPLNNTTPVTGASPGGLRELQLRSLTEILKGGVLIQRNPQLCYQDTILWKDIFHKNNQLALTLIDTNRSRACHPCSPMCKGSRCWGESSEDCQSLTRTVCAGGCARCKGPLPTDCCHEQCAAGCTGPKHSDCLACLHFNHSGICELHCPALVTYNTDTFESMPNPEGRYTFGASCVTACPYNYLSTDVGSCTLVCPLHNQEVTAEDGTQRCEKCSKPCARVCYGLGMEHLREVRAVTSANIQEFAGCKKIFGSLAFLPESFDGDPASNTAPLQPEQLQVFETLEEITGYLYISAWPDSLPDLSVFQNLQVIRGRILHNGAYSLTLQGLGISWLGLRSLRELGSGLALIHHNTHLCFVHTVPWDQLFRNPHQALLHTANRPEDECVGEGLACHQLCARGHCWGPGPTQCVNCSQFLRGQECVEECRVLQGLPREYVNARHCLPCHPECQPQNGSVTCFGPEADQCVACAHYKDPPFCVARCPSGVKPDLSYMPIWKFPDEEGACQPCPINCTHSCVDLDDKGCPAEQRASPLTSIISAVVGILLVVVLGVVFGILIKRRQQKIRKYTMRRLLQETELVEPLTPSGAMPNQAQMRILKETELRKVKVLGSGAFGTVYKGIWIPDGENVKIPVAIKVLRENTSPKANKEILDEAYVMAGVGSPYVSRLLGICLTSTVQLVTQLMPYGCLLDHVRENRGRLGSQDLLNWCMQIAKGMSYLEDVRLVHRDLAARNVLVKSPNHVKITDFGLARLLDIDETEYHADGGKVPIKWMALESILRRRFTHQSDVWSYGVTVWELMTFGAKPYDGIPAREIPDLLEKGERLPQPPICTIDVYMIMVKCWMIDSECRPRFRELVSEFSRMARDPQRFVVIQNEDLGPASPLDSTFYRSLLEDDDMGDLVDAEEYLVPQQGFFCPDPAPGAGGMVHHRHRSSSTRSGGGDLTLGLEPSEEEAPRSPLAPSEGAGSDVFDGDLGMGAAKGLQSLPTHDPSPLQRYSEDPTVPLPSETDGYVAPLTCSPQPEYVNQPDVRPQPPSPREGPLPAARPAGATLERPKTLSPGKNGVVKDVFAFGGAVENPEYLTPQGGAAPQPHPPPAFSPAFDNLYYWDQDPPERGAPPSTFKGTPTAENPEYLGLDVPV
Experiment: inhibitors of Her2 protein expression, primary screen, SKBR-3 cells, AlphaScreen, 66K library (AID 645);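 note: 100% = DMSO carrier and 0% = 500 nM PU-H71 HSP90 inhibitor; lower value means stronger loss of Her2 protein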
Conditions: SKBR-3 HER2 protein level, 18-24 h, at 10 µM, active compounds read low
Out of some 65,000 compounds screened, about 450 (0.69%) were called active. For the sample, actives were picked, then their nearest neighbours and some compounds at random.
assay.readout: HER2 level % of control (%)
Numbers only here, please. The scale is %.

For the compound shown here, `CC(C)Cc1nc(N2CCOCC2)c(C#N)c2c1CCC2` , give the reported HER2 level % of control.
106

For `CC(C)CCNc1nc(N2CCCC2)c2c(c1C#N)CCN(C)C2` then?
-0.705

For CC1CCC(NS(=O)(=O)c2ccc3c(c2)n(C)c(=O)c(=O)n3C)CC1 (centres undefined) then?
76.3

For Cc1cc(NC(=O)CN2CCCCC2C)nc2c1c(=O)oc1ccccc12 (centres undefined) then?
70

For `Cc1c(NC(=O)c2coc(=O)c(Br)c2)c(=O)n(-c2ccccc2)n1C` then?
-15.4

For `c1ccc(-n2ncc(-c3nn[nH]n3)n2)cc1` then?
88.5

For CCCC(C)n1[nH]c(=O)c2c(C)cc(C)nc21 (centres undefined) then?
90.1

For `CCN1C(=O)/C(=C2\SC(N3CCCCC3)=NC2=O)c2ccccc21` then?
121

For `O=C(NCCCN1CCN(C2CCCCC2)CC1)Nc1ccccc1C(F)(F)F` then?
82.5

For `CCOc1ccc(NCCC(=O)c2ccc3c(c2)OCO3)cc1` then?
95.7

For `CC(=O)NC1=NC(=O)CS1` then?
76.7

For CC(NC(=O)CSc1nc2c(cc1C#N)CN(C)CC2)c1ccccc1 (centres undefined) then?
110

For `Cc1cc(C(=O)Nc2c(C)n(C)n(-c3ccccc3)c2=O)cs1` then?
91.6

For `COc1ccccc1N1CCN(C(=O)c2ccc(S(=O)(=O)N3CCCCC3)cc2)CC1` then?
135

For `Cc1nc(C)c2c(c1C(F)(F)F)-c1ccccc1C2(F)F` then?
78.7

For CCn1cc(C(=O)NCC2CCCO2)c(=O)c2cc(S(=O)(=O)N3CCCCC3)ccc21 (centres undefined) then?
108

For `CCC(=O)NC(=Nc1nc2ccccc2s1)NC(=O)CC` then?
76

For CCCCn1c(SCC(=O)NCC2CCCO2)nc2ccc(N3CCOCC3)cc2c1=O (centres undefined) then?
92.5

For `Nc1nonc1-c1noc(-c2ccc(Br)o2)n1` then?
79.9

For O=C(NCc1ccco1)C1CCCN(S(=O)(=O)c2cnc[nH]2)C1 (centres undefined) then?
105

For COCC(C)N=CC1=C(O)CC(C)(C)CC1=O (centres undefined) then?
118

For Cc1nc2sc(C(c3ccco3)N3CCOCC3)c(O)n2n1 (centres undefined) then?
51

For `CCN1CCc2c(C#N)c(NCc3ccccc3)nc(NCCO)c2C1` then?
94.1

For `COC(=O)Nc1c(C)n(C)n(-c2ccccc2)c1=O` then?
89.1

---

Target: Receptor tyrosine-protein kinase erbB-2 (Homo sapiens) (UniProt P04626)
Test: inhibitors of Her2 protein expression, primary screen, SKBR-3 cells, AlphaScreen, 66K library (AID 645);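 note: 100% = DMSO carrier and 0% = 500 nM PU-H71 HSP90 inhibitor; lower value means stronger loss of Her2 protein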
Settings: SKBR-3 HER2 protein level, 18-24 h, at 10 µM, active compounds read low
Among all 65,000 compounds or so, about 450 (0.69%) were called active. Many of the other results were omitted from the sample, so actives are more common in it than they were.
assay.readout: HER2 level % of control

For the compound shown here, `Cc1nc(-c2ccc(NC(=O)c3cccs3)cc2)cs1` , give the reported HER2 level % of control.
103% (inactive)

For O=C(c1ccco1)N1CCN(C(=O)C2CC(c3ccc(F)cc3)=NO2)CC1 (stereo unspecified) then?
57.7% (inactive)

For O=C(C(NS(=O)(=O)c1cccc2nsnc12)c1ccccc1)N1CCN(c2ccccn2)CC1 (stereo unspecified) then?
70.8% (inactive)

For `CCOc1ccc(OCc2ccc(C(=O)Nc3cccc(C)n3)o2)cc1` then?
68.1% (inactive)

For `CCOC(=O)CNC(=O)CN1C(=O)CCSc2ccccc21` then?
106% (inactive)

For CCCCCCC(=O)N(O)C1CC(=O)N(c2ccccc2)C1=O (stereo unspecified) then?
81.1% (inactive)

---

Target: Receptor tyrosine-protein kinase erbB-2 (Homo sapiens)
Test: inhibitors of Her2 protein expression, primary screen, SKBR-3 cells, AlphaScreen, 66K library (AID 645);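 note: 100% = DMSO carrier and 0% = 500 nM PU-H71 HSP90 inhibitor; lower value means stronger loss of Her2 protein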
Settings: SKBR-3 HER2 protein level, 18-24 h, at 10 µM
The campaign covered roughly 65,000 compounds. About 450 (0.69%) were called active.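 Rule for the calls: active = HER2 level under 5% of the carrier-only control; inconclusive = no clear call, values can overlap the other calls; inactive = the rest.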 Many of the other results were omitted from the sample, so actives are more common in it than they were.
Give one outcome, nothing more. List: Y = active, N = inactive

# fetch the recorded call for `Cc1ccc(N2CCN(S(=O)(=O)N(C)C)CC2)cc1Cl` here
N

For `O=C(N1CCOCC1)N1CCOCC1` then?
N

For `C=CCn1c(N)c(C(=O)OCC(C)C)c2nc3ccccc3nc21` then?
N

For Cn1c(=O)c2[nH]c(NCC3CCCO3)nc2n(-c2ccccc2)c1=O (stereo not given) then?
N

For COc1ccc(C(c2nnnn2C2CCCCC2)N2CCN(c3ccccc3F)CC2)cc1 (stereo not given) then?
N

For OC(COc1cccc2ccccc12)CN1CCN(c2ccccn2)CC1 (stereo not given) then?
N

For `CCCCN(C)Cc1c(C)[nH]c2ccc(Cl)cc2c1=O` then?
N

For `CCOC(=O)c1c(NC(=O)CCC(=O)NCc2ccco2)sc2c1CCCC2` then?
N

For Cc1cc(NC(=O)CCC(=O)N(c2cccc(F)c2)C(C(=O)NC2CCCC2)c2ccncc2)no1 (stereo not given) then?
N

For CCCC1CC(C)(C(=O)Cn2[nH]c(=O)ccc2=O)OC1=O (stereo not given) then?
N

For CC(C)C1C2=C(CC(C)(C)CC2=O)ON1c1ccccc1 (stereo not given) then?
N

For `CCOC(=O)c1c(C)n(C)c2ccc(OC)c(NC(=O)CN3CCC4(CC3)OCCO4)c12` then?
N

For `O=C(Nc1cc(=O)[nH]c2ncnn12)c1ccccc1Cl` then?
N

For `N#CC(C(N)=O)=C1CCC2(CC1)OCCCCO2` then?
N

For CC(C)(C)n1nnnc1C(c1ccc2ncccc2c1)N1CCSCC1 (stereo not given) then?
N

For `O=C(c1ccc2c(c1)N(Cc1ccc(F)cc1)C(=O)CS2)N1CCOCC1` then?
N

For `O=C(NCCN=C1NS(=O)(=O)c2ccccc21)c1ccc(S(=O)(=O)N2CCOCC2)cc1` then?
N

For `Clc1cccc(Cl)c1Cn1nnc(-c2cccs2)n1` then?
N

For N#CC1=C(SCc2ccccc2)NC(=O)C(C#N)C12CCCC2 (stereo not given) then?
N

For `Cn1c(=O)c2cn(-c3cccc4ccccc34)cc2n(C)c1=O` then?
N

For `CCOC(=O)Cc1csc(NC(=O)C(C)(C)C)n1` then?
N

For `O=c1ccn(Cc2ccccc2Cl)cc1` then?
N

For CCCc1[nH]nc2c1C(c1ccc(Br)s1)C(C#N)=C(N)O2 (stereo not given) then?
N

For `Cc1ccc(CCNC(=O)C2CCN(S(=O)(=O)N3CCCC3)CC2)cc1` then?
N

For `COc1ccc2oc(C)c(NC(C)=O)c2c1` then?
N

For O=C(NC(=O)c1ccc(Cl)c(Cl)c1)OC1CCS(=O)(=O)C1 (stereo not given) then?
N

For `COc1nc(OC)nc(N(C)CCO)n1` then?
N

For `COc1ccccc1CNC(=O)CCn1c(=O)sc2ccccc21` then?
N

For `N#Cc1c(NC(=O)CSc2nc3ccccc3c(=O)n2Cc2ccco2)sc2c1CCCC2` then?
N

For CC1(C)CC(O)C(CCC(O)c2ccccc2)C(C)(C)N1 (stereo not given) then?
N

For CC(C)c1ccc(OCC(O)Cn2cnc3ccccc32)cc1 (stereo not given) then?
N

For `CCc1cc2c(=O)c(-c3ccon3)c(N)oc2cc1OC` then?
N

For Cc1ccccc1N1CC(c2nc3ccccc3[nH]2)CC1=O (stereo not given) then?
N

For `CCOC(=O)c1sc2nc(CSCC(=O)OCc3ccc(C(=O)OC)o3)[nH]c(=O)c2c1C` then?
N

For CCCC1C(c2ccccc2)C(C#N)(C#N)C2(C#N)CC1(N)NC2=O (stereo not given) then?
Y

For `N#CCCn1cnc2ccccc21` then?
N

For `CCOC(=O)CSc1nncc2ccc(OC)c(OC)c12` then?
N

For `CS(=O)(=O)N(CC(=O)N1CCN(Cc2ccc3c(c2)OCO3)CC1)c1ccc2c(c1)OCO2` then?
N

For `CCS(=O)(=O)NCCc1ccc(OC)c(OC)c1` then?
N

For `Cc1ccccc1CN1CCN(C(=O)c2cccc(F)c2)CC1` then?
N

For `CSc1cccc(NC(=O)CSc2ccccc2)c1` then?
N

For `CCCCNC(=O)c1c[nH]c2ccc(S(=O)(=O)Nc3ccc(OCC)cc3)cc2c1=O` then?
N

For CCOC(=O)C1CCCN(C(=O)c2sc3nc(C)nc(N4CCOCC4)c3c2C)C1 (stereo not given) then?
N

For `O=c1[nH]c(-c2ccccc2)c(-c2ccccc2)[nH]1` then?
N

For `Brc1ccc(OCCn2ccnc2)cc1` then?
N
